system: Stenotrophomonas maltophilia; assay: Antibacterial activity against Stenotrophomonas maltophilia isolate KJ deficient in L2 beta lactamase gene by Etest; type: functional
MIC: recorded values

compound	MIC
C[C@@H](O)[C@H]1C(=O)N2C(C(=O)O)=C(S[C@@H]3CN[C@H](C(=O)N(C)C)C3)[C@H](C)[C@H]12 [MEROPENEM]	> 32 µg/mL
C[C@@H](O)[C@H]1C(=O)N2C(C(=O)O)=C(SCCNC=N)C[C@H]12 [IMIPENEM ANHYDROUS]	> 32 µg/mL
CC1(C)S[C@@H]2[C@H](NC(=O)[C@H](N)c3ccccc3)C(=O)N2[C@H]1C(=O)O [AMPICILLIN]	> 2050 µg/mL

These measurements were taken from ChEMBL document CHEMBL1255247.
